Listed below: viability values for each entry.
experimental details: HUVEC growth inhibition – cell-based, human, primary screen (AID 575);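 note: 100% = median of untreated cell wells with 0.1% DMSO on each plate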
settings: HUVEC proliferation, CellTiter-Glo luminescence, 72 h; at 10 µM; stronger effect = lower value
Expressed in %, but write only the number.

As a guide, the following entries are already answered.
[
  {
    "compound": "O=C(NC1(C(F)(F)F)C(=O)Nc2c1c(=O)[nH]c(=O)n2Cc1ccco1)C1CCCCC1 (stereo unspecified)",
    "viability / %": 97.6
  },
  {
    "compound": "Cc1ccc(Nc2cc(C)nc3nnnn23)cc1",
    "viability / %": 78.5
  },
  {
    "compound": "COc1ccc(C(=O)Nn2c(SCC(=O)NCC3CCCO3)nc3ccccc3c2=O)cc1 (stereo unspecified)",
    "viability / %": 76.8
  }
]

Exam item: So what does the record say about viability for Cc1sc2ncnc(SCC(=O)N3CCCC3)c2c1C ?
Marked response: 78.1

Exam item: What value of viability has been reported for the following compound? CN(C)CCC(c1ccc(Br)cc1)c1ccccn1 (stereo unspecified)
Marked response: 80.3

Exam item: Requested read-out: viability. Entry: COc1ccccc1CN(Cc1nc2ccccc2c(=O)[nH]1)C(=O)Nc1ccccc1
Marked response: 89.4

====

experimental details: growth inhibitors of H69AR lung tumor, primary screen, human, duplicate replicates (AID 580);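 note: 100% = mean luminescence of untreated wells and 0% = no signal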
settings: H69AR lung tumor cells viability, ATP luminescence, 72 h; at 10 µM; stronger effect = lower value
Activity calls are given as the source filed them.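 Rule for the calls: active = viability at or under a set limit in both replicates, limit being median viability minus 3 SD (cut at about 48% in these data, passing the limit was not always enough); inconclusive = at or under the limit in just one replicate; inactive = at or above the limit in both replicates.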
value kind: viability

Exam item: Look up viability: N#Cc1c(NC(=O)COC(=O)C2CC3C=CC2C3)oc(-c2ccccc2)c1-c1ccccc1 (stereo unspecified)
Marked response: 44.6% (active)

====

experimental details: reversal of MRP1-mediated doxorubicin resistance, pilot screen, H69AR cells, doxorubicin co-treatment (AID 601)
settings: H69AR cells, CellTiter-Glo, 72 h; compound alone cytotoxicity; at 10 µM
Sorting guide: entries reporting viability beneath 90% go in the rule met pile, the rest go in the rule not met pile.

Take a look at these entries with their results.
[
  {
    "compound": "COCCn1c(=O)[nH]c2cc(C(=O)N3CCN(Cc4ccc5c(c4)OCO5)CC3)ccc2c1=O",
    "class label": "rule not met"
  },
  {
    "compound": "CCOC(=O)CSc1nnc(CNC(=O)c2ccc(OC)c(OC)c2)n1C",
    "class label": "rule not met"
  },
  {
    "compound": "CCOC(=O)C1CCN(C(=O)Nc2ccc3snnc3c2)CC1",
    "class label": "rule not met"
  },
  {
    "compound": "CCOC(=O)C1CCCN(C(=O)c2cc3c(-c4cccc(OC)c4)nn(C)c3s2)C1 (stereo not drawn)",
    "class label": "rule met"
  },
  {
    "compound": "CN(c1ccc(OCc2nnc(-c3ccccc3)o2)cc1)S(=O)(=O)c1ccccc1",
    "class label": "rule met"
  }
]

For the next question, use this compound.
Exam item: Determine whether this compound shows viability lower than 90% (ties excluded): O=C(Nc1ccc2c(c1)OCO2)OCc1ccccc1
Marked response: rule not met

====

experimental details: growth inhibitors of H69AR lung tumor, primary screen, human, duplicate replicates (AID 580);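 note: 100% = mean luminescence of untreated wells and 0% = no signal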
settings: H69AR lung tumor cells viability, ATP luminescence, 72 h; at 10 µM
The source made the active and inactive calls.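 How the source made its calls: active means viability at or under a set limit in both replicates, limit being median viability minus 3 SD (cut at about 48% in these data, passing the limit was not always enough); inconclusive means at or under the limit in just one replicate; inactive means at or above the limit in both replicates.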
// one of yes = active, no = inactive, no free text

Exam item: Hi team, can someone confirm the assay call for O=C(C1=C(O)C(=O)N(Cc2ccccc2)C1c1ccncc1)c1ccco1 (centres undefined) ?
Marked response: no

Exam item: For CCc1ccccc1NC(=O)c1ccoc1C , which call appears in the assay record?
Marked response: no

Exam item: Hello, I am checking results. What call was entered for COc1ccc(NC(=O)N2CCN(c3nc(-c4cccc(OC)c4)cs3)CC2)cc1 ?
Marked response: no

Exam item: Which outcome did this test record for the compound CN=C(C)C1=C(O)C(C(=O)OC)C(C)(C)CC1=O (centres undefined) ?
Marked response: no

Exam item: Dear colleague, could you share the recorded outcome for Cc1nc2sc3c(c2c(=O)o1)CCC3 when you have a moment?
Marked response: no

Exam item: Please state the recorded outcome for this compound: CC(N)C12CC3CC(C1)CC(C(C)N)(C3)C2 (centres undefined)
Marked response: no

Exam item: Hey, what did the test say about COc1ccc(OC)c(-c2nc3c(C)n[nH]c(=O)c3[nH]2)c1 ?
Marked response: no

Exam item: Per the records of this test, what outcome belongs to COc1ccc(NC(=O)CCc2ccccc2)cc1NC(=O)c1ccco1 ?
Marked response: no

Exam item: What did this assay record as the result for CCc1c(C)nc2ncnn2c1NCCc1ccc(OC)c(OC)c1 ?
Marked response: no

Exam item: Assay outcome for O=C(Nc1ccccc1C(=O)O)c1cccc(NC(=O)c2ccc(Br)o2)c1 : what was it?
Marked response: no

Exam item: Which result was noted for this compound in the test: CSC(=O)CC(=O)NC(=O)c1ccccc1
Marked response: no
